System: SARS-CoV-2 stock strain NL/2020
Test method notes: Protective effect against virus-induced cytopathic effect (crystal violet staining of Vero-E6 monolayer)
Assay type: cell-based
Condition label: Severe acute respiratory syndrome coronavirus 2, Vero C1008, 72 h, Vero-E6, SARS-CoV-2 MOI 0.001, 72 h, 50 to 0.78 μM tested; read-out: PC MIN (lowest protective concentration)
minimal effective concentration under 2 µM gets satisfied, anything at or over 2 µM gets not satisfied.

Compound | Label
CC(C)(C)OC(=O)N[C@@H](Cc1c[nH]c2ccccc12)C(C#N)Nc1ccccc1C(=O)OC(C)(C)C (stereo partly drawn) | not satisfied
CC(C)(C)OC(=O)N[C@@H](Cc1c[nH]c2ccccc12)C(C#N)Nc1ccc(Br)cc1C(=O)c1ccccc1 (stereo partly drawn) | satisfied
COC(=O)c1cc(-c2ccc(N3CCOCC3)cc2)ccc1NC(C#N)[C@H](Cc1c[nH]c2ccccc12)NC(=O)OC(C)(C)C (stereo partly drawn) | satisfied
COC(=O)c1ccccc1NC(C#N)[C@H](Cc1c[nH]c2ccccc12)NC(=O)OC(C)(C)C (stereo partly drawn) | not satisfied
COC(=O)c1cc(Br)ccc1NC(C#N)[C@H](Cc1c[nH]c2ccccc12)NC(=O)OC(C)(C)C (stereo partly drawn) | satisfied

In plain terms, does CCOC(=O)c1ccccc1NC(C#N)[C@H](Cc1c[nH]c2ccccc12)NC(=O)OC(C)(C)C (stereo partly drawn) come in under 2 µM for minimal effective concentration? satisfied

In plain terms, does COC(=O)c1cc(-c2cccc(Cc3ccccc3)c2)ccc1NC(C#N)[C@H](Cc1c[nH]c2ccccc12)NC(=O)OC(C)(C)C (stereo partly drawn) come in under 2 µM for minimal effective concentration? not satisfied

In plain terms, does COC(=O)c1cc(-c2ccc(OC)nc2)ccc1NC(C#N)[C@H](Cc1c[nH]c2ccccc12)NC(=O)OC(C)(C)C (stereo partly drawn) come in under 2 µM for minimal effective concentration? satisfied

In plain terms, does COC(=O)c1cc(-c2ccc(N3CCCC3)nc2)ccc1NC(C#N)[C@H](Cc1c[nH]c2ccccc12)NC(=O)OC(C)(C)C (stereo partly drawn) come in under 2 µM for minimal effective concentration? satisfied

In plain terms, does COC(=O)c1ccc(NC(C#N)[C@H](Cc2c[nH]c3ccccc23)NC(=O)OC(C)(C)C)cc1 (stereo partly drawn) come in under 2 µM for minimal effective concentration? not satisfied

In plain terms, does COC(=O)c1cc(-c2ccc(N3CCN(C)CC3)cc2)ccc1NC(C#N)[C@H](Cc1c[nH]c2ccccc12)NC(=O)OC(C)(C)C (stereo partly drawn) come in under 2 µM for minimal effective concentration? satisfied

====

Test method notes: in vitro
Condition label: human
Result type: CC50 at 48 h

Compound | Result type | Observed value
COC(=O)c1cc(-c2ccc(N3CCOCC3)nc2)ccc1NC(C#N)[C@H](Cc1c[nH]c2ccccc12)NC(=O)OC(C)(C)C (some centres unmarked) | CC50 at 48 h | > 50 µM
COC(=O)c1cc(-c2cccc(N3CCOCC3)c2)ccc1NC(C#N)[C@H](Cc1c[nH]c2ccccc12)NC(=O)OC(C)(C)C (some centres unmarked) | CC50 at 48 h | > 50 µM

What does the data say about its CC50 at 48 h? Entry: COC(=O)c1cc(-c2ccc3c(c2)OCCO3)ccc1NC(C#N)[C@H](Cc1c[nH]c2ccccc12)NC(=O)OC(C)(C)C (some centres unmarked) 50 µM

What does the data say about its CC50 at 48 h? Entry: COC(=O)c1cc(-c2ccc(N3CCCC3)nc2)ccc1NC(C#N)[C@H](Cc1c[nH]c2ccccc12)NC(=O)OC(C)(C)C (some centres unmarked) > 50 µM

What does the data say about its CC50 at 48 h? Entry: COC(=O)c1cc(-c2ccc(N3CCOCC3)cc2)ccc1NC(C#N)[C@H](Cc1c[nH]c2ccccc12)NC(=O)OC(C)(C)C (some centres unmarked) > 50 µM
